Protocol details: Viability qHTS for spleen associated tyrosine kinase inhibitor (SYKi) drug resistant MV4-11 cells (AID 1963824); note: nearly all actives have a fitted effect of over 35% in size; note: potency is the fitted concentration of half-maximal effect
Assay conditions: SYKi-resistant MV4-11 viability, CellTiter-Glo, 72 h; series mostly up to 45 µM
Records with an inconclusive call do not appear. The source made the active and inactive calls. Calls come from the whole dose curve; as a rule, active = well fitted cell-killing curve with a large enough effect; inconclusive = small, poorly fitted or top-dose-only effect, or effect the other way; inactive = no such curve, though single readings can be large or run the other way.
Measured attribute: Potency

CCCC(O)C(CC)CO (centres undefined) : inactive
COc1cc(/C=C/C(=O)O[C@H]2[C@H](O)[C@@H](CO)O[C@@]2(CO)O[C@H]2O[C@H](CO)[C@@H](O)[C@H](O)[C@H]2O)ccc1O : inactive
CNS(=O)(=O)c1ccc2c(c1)/C(=C/c1[nH]c3c(c1CCCN1CCN(C)CC1)CCCC3)C(=O)N2 : 0.332 µM (active)
CCN1C(=O)N2Cc3cc(OC)cc(OC)c3[C@@H](C)C=C2C12CCN(Cc1cc(C)cc(C)c1)CC2 : 14.8 µM (active)
CCN(CC)C(=O)C(c1ccccc1)N1CCN(c2ccc(NC(=O)c3ccccc3-c3cccnc3)cc2F)CC1 (centres undefined) : inactive
CCCCCN(CCCOC)C(=O)C(CCC(=O)O)NC(=O)c1ccc(Cl)c(Cl)c1 (centres undefined) : inactive
Cc1ccccc1N1C(=O)c2cc(S(N)(=O)=O)c(Cl)cc2NC1C (centres undefined) : inactive
CCc1nn(CCO)c(CC)c1Oc1cc(C#N)cc(C#N)c1 : inactive
COc1cc(C2Oc3c(OC)cc(/C=C/C(=O)OC4CC(O)(C(=O)O)CC(O)C4O)cc3C2CO)ccc1O (centres undefined) : inactive

----------
Protocol details: Cellular viability qHTS for adrenocortical cancer (ACC) cell line NCI-H295R (AID 1963990); note: nearly all actives have a fitted effect of over 60% in size
Assay conditions: CellTiter-Glo ATP luminescence, 48 h; series mostly up to 46.1 µM
Records with an inconclusive call do not appear. Calls of active or inactive are those of the source. Calls come from the whole dose curve; as a rule, active = well fitted cell-killing curve with a large enough effect; inconclusive = small, poorly fitted or top-dose-only effect; inactive = flat fitted curve, though single readings scatter.
Possible outcomes: label 1 = active, label 0 = inactive

CC(=O)OCC(=O)[C@@]12N=C(C)O[C@@H]1C[C@H]1[C@@H]3CCC4=CC(=O)C=C[C@]4(C)[C@H]3[C@@H](O)C[C@@]12C : label 0
CNCc1ccccc1 : label 0
CC[C@]1(O)CC2CN(CCc3c([nH]c4ccccc34)[C@@](C(=O)OC)(c3cc4c(cc3OC)N(C)[C@H]3[C@@](O)(C(=O)OC)[C@H](OC(C)=O)[C@]5(CC)C=CCN6CC[C@]43[C@@H]65)C2)C1 (stereo not given in full) : label 1
O=C(O)[C@@H](c1ccc(OCc2ccc3ccccc3n2)cc1)C1CCCC1 : label 0
COc1ccc(C(=O)N2CCN(CC(=O)N3CCOCC3)CC2)cc1 : label 0
CC(C)Oc1ccc(-c2nc(-c3cccc4c3CC[C@@H]4NCCO)no2)cc1C#N : label 1
CC(=O)N[C@H]1[C@H]([C@H](O)[C@H](O)CO)OC(C(=O)O)=C[C@@H]1N=C(N)N : label 0
O=Cc1ccc(O)c(O)c1O : label 1
O=C(NN1CCCC1)NS(=O)(=O)c1ccc(Cl)cc1 : label 0
O=C(O)COCCN1CCN(C(c2ccccc2)c2ccc(Cl)cc2)CC1 (stereo not given) : label 0

----------
Protocol details: Viability qHTS for spleen associated tyrosine kinase inhibitor (SYKi) naive MV4-11 cells (AID 1963823); note: nearly all actives have a fitted effect of over 40% in size
Assay conditions: MV4-11 AML viability, CellTiter-Glo luminescence, 72 h; series mostly up to 45 µM
Results filed as inconclusive are left out. Calls of active or inactive are those of the source. The call rests on the fitted dose curve; in most records, active means well fitted cell-killing curve with a large enough effect; inconclusive means small, poorly fitted or top-dose-only effect, or effect the other way; inactive means no such curve, though single readings can be large or run the other way.
Possible outcomes: T (active), F (inactive)

CC[N+](CC)(CC)CCOc1ccc(/C=C/c2ccccc2)cc1 : F
CC(N)C12CC3CC(CC(C3)C1)C2 (stereo not given) : F
FC(F)(F)c1cc(C(F)(F)F)c2ccc3nc(-c4nnco4)cn3c2n1 : F
O=C(NCc1nc2ccccc2c(=O)n1-c1ccc(F)cc1)Nc1ccc(Cl)c(C(F)(F)F)c1 : T
C[C@@H]1C(=O)OC[C@H]2C(C(=O)O)=C[C@@H]3CC(C)(C)C[C@]312 : F
C[C@@H]1C[C@@H](O)[C@@]23CO[C@@H](O)[C@@H]2CCC[C@@H]3[C@@]12C[C@@H](c1ccoc1)OC2=O : F
CC(C)(C)c1ccc(NC(=O)N2CCN(c3ncccc3Cl)CC2)cc1 : T
COc1cc(OC)c(/C=C/S(=O)(=O)Cc2ccc(OC)c(OP(=O)(O)O)c2)c(OC)c1 : T
Oc1ccc([C@@H]2Oc3ccc(O)cc3[C@@H]3CCC[C@@H]32)cc1 : T
CC1CCC23COC(=O)C2=CC(O)CC3C1(C)CCC1=CC(O)OC1=O (stereo not given) : F
COc1cc(OC)cc(OC)c1 : F
CCOc1cccc2c1OC(c1ccc(F)cc1)C([N+](=O)[O-])=C2 (stereo not given) : T
NC(=O)Nc1cc(-c2cccc(F)c2)sc1C(=O)N[C@H]1CCCNC1 : F
Cc1cccc(/C=N/Nc2cc(N3CCOCC3)nc(OCCc3ccccn3)n2)c1 : T
COc1cc(C)c(C(=O)O[C@H]2[C@@H](OC(C)=O)[C@H](n3ccc(=O)[nH]c3=O)O[C@@H]2CO)c(OC)c1 : F
C=CC(C)(O)CC[C@H]1C(=C)CCC2[C@](C)(C(=O)O)CCC[C@@]21C (stereo not given in full) : F
COc1ccc(C(=O)Nc2ncc(-c3ccc(C(=O)O)cc3)s2)cc1 : T
COc1ccc(C2(C#N)CCC(C(=O)O)CC2)cc1OC1CCCC1 (stereo not given) : F
COc1cc(/C=C/C(=O)O[C@@H]2C[C@](O)(C(=O)O)C[C@@H](O)[C@H]2O)ccc1O : F
Cc1cn2cc(C(=O)N(C)CCO)cc(N[C@@H]3CCOc4cccc(C)c43)c2n1 : T
CCn1c2ccccc2c2cc(Nc3ccnc(NCCCN4CCOCC4)n3)ccc21 : T
CCCCCOc1ccccc1/C(=C\SC)n1ccnc1 : T
CCN(CC)CC(=O)OCC(=O)[C@@]1(O)CC[C@H]2[C@@H]3CCC4=CC(=O)CC[C@]4(C)[C@H]3[C@@H](O)C[C@@]21C : F
O=C(O)CCCCCCCC(=O)O : F
COc1cc(/C=C/C=O)cc(OC)c1O[C@@H]1O[C@H](CO)[C@@H](O)[C@H](O)[C@H]1O : F
CC1=CC(=O)C(C(C)C)=C/C1=N/OC(=O)c1ccccc1C : T
Cc1ccn(-c2ccc(-c3ncco3)cc2)c(=O)c1-c1ccc2nc(N)ncc2c1 : T
CCOC(=O)C(=O)CCCCCCl : F
Cc1ccc(S(=O)(=O)Nc2nc3ccccc3nc2Nc2ccc3nsnc3c2)cc1 : T
CC(=O)/C=C/C1(O)C(C)=CC(=O)CC1(C)C (stereo not given) : F
COc1cc(Br)c(Nc2nc(-c3c(C)nc4ncccn34)cs2)c(Br)c1 : T
Nc1ccn([C@@H]2CS[C@H](CO)O2)c(=O)n1 : F
COC(=O)c1cc(Cl)c(NC(C)=O)cc1OC : F
OC[C@@]1(O)CO[C@@H](OC[C@H]2O[C@@H](Oc3c[nH]c4ccccc34)[C@H](O)[C@@H](O)[C@@H]2O)[C@@H]1O : F
CNC(=O)c1c(-c2ccc(F)cc2)oc2cc(N(CCO)S(C)(=O)=O)c(C3CC3)cc12 : F
CC(C(O)c1ccccc1)N(C)CCOC(c1ccccc1)c1ccccc1 (stereo not given) : T
C=C[C@H]1[C@H](O[C@@H]2O[C@H](CO)[C@@H](O)[C@H](O)[C@H]2O)OC=C(C(=O)OC)[C@H]1CCO : F
CN1CCN(c2c(F)cc3c(=O)c(C(=O)O)cn4c3c2OCN4C)CC1 : F
O=C(OC1C[C@H]2CC[C@@H](C1)[N+]21CCCC1)C(O)(c1ccccc1)c1ccccc1 (stereo not given in full) : F
COc1ccc(CCO[C@@H]2O[C@H](CO[C@@H]3OC[C@H](O)[C@H](O)[C@H]3O)[C@@H](O)[C@H](O)[C@H]2O)cc1 : F
